TARGET OR TEST SYSTEM: Retinoic acid receptor RXR-alpha (Homo sapiens)
Sequence (P19793 whole entry): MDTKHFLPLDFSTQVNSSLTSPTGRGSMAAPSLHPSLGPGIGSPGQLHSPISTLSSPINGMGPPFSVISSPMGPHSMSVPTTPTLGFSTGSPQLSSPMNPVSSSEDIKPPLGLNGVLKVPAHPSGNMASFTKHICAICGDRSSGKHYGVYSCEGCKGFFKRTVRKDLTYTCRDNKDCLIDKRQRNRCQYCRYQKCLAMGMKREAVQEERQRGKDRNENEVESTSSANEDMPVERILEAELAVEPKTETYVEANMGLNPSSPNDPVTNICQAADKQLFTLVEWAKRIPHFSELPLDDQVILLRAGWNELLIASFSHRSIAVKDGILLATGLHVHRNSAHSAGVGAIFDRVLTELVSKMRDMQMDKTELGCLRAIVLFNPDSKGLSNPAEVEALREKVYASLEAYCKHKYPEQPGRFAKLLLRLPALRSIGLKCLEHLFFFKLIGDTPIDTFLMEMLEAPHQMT
Assignment: determine reported pKd for the given compounds.
Hey, just a heads up that pKd is the negative log base 10 of the concentration in molar.

Problem: Which pKd value belongs to C/C(=C\c1cc(C(=O)O)no1)c1ccc2c(c1)C(C)(C)CCC2(C)C ?
Solution: 5.68

Problem: Which pKd value belongs to C/C(=C/c1cc(C(=O)O)no1)c1ccc2c(c1)C(C)(C)CCC2(C)C ?
Solution: 5.38

Problem: Which pKd value belongs to Cc1cc2c(cc1-c1cc(C(=O)O)no1)C(C)(C)CCC2(C)C ?
Solution: 5.26

Problem: Which pKd value belongs to CC1(C)CCC(C)(C)c2cc(-c3cc(C(=O)O)no3)ccc21 ?
Solution: 5.29
